molecular target: full length LRRK2 protein (Homo sapiens); construct: compounds were tested in triplicate with full length LRRK2 protein; made in house; test: In vitro LRRKtide kinase assay with full length recombinant LRRK2, dose-response (IC50/pIC50); format: biochemical; conditions: read-out: IC50 in vitro (lrrktide)
Sequence (Q5S007 whole entry): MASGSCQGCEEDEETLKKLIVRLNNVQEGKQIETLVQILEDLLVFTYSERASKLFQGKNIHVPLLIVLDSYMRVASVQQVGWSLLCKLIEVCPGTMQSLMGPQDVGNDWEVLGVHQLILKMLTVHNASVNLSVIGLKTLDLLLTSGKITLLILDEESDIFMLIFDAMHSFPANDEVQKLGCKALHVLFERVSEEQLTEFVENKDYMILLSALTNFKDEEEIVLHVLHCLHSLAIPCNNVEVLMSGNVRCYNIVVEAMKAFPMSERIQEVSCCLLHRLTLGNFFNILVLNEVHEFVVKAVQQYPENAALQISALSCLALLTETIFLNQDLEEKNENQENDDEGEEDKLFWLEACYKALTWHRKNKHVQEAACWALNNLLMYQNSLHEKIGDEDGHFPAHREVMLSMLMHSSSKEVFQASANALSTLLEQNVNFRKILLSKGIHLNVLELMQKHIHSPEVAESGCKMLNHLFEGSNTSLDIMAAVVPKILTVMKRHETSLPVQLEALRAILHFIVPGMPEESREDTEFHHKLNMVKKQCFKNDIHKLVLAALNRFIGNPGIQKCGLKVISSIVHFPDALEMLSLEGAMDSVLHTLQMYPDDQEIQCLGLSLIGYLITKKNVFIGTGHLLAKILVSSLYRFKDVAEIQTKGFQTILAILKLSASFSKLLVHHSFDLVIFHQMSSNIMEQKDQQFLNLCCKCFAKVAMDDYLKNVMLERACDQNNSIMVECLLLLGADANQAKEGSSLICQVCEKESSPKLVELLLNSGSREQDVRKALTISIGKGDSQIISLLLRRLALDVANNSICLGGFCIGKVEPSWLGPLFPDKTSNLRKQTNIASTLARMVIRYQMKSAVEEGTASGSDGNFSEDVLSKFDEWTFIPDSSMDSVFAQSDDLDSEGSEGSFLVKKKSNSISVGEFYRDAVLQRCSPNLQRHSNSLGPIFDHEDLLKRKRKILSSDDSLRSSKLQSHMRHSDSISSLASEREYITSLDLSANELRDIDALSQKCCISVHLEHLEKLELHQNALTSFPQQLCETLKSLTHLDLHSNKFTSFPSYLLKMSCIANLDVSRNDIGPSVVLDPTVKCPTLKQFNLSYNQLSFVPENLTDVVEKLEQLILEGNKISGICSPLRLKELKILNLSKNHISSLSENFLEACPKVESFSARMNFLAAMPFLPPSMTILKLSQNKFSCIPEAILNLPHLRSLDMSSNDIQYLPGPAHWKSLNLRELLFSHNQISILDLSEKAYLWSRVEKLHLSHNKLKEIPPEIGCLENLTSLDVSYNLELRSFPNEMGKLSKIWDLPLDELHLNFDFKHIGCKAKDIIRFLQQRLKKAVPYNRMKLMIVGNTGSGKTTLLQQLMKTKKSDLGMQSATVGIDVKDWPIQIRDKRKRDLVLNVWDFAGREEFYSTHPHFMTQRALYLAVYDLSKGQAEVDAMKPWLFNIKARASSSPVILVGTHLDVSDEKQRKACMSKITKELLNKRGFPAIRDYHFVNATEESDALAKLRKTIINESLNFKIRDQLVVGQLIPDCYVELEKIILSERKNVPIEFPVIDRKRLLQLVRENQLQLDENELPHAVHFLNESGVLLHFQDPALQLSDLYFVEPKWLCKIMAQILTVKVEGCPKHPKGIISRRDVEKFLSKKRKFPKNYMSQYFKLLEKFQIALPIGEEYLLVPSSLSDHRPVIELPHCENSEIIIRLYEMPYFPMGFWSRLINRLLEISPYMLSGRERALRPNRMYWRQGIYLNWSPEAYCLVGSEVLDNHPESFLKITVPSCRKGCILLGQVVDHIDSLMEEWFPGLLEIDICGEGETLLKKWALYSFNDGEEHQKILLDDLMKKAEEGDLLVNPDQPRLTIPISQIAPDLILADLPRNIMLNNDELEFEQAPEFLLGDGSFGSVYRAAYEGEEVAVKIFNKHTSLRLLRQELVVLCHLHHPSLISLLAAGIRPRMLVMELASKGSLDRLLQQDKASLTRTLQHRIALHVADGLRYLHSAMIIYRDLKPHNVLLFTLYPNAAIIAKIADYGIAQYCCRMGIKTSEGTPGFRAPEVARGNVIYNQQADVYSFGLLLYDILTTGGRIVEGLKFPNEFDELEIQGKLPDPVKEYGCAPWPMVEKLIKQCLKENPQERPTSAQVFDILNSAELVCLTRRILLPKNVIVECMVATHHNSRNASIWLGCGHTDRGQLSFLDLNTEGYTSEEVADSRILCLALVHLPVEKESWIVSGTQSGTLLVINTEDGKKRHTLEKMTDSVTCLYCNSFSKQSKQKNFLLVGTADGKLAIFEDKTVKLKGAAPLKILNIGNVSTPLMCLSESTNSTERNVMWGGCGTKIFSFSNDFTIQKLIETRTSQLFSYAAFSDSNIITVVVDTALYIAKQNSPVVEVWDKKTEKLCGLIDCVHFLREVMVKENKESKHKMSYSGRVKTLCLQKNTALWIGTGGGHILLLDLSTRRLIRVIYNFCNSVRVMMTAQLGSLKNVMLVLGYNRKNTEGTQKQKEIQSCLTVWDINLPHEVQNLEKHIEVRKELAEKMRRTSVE
pIC50: −log10 of the molar value.

# sample smiles, pIC50
data = [
    ("COc1cc(C(=O)N2CCC(N3CCN(C)CC3)CC2)ccc1Nc1ncc2c(n1)N(C)c1ccccc1C(=O)N2C", 8.45),
]

====

biological target: LRRK2 phospho-Ser935 (Homo sapiens); construct: expressed in transfected cells; assay: Cellular LRRK2 phosphoserine 935 dephosphorylation spotblot assay in SH-SY5Y cells stably expressing 3xFlag-LRRK2; assay type: cell-based; settings: @ 5 μM for 2 h; SH-SY5Y stably expressing LRRK2; pS935/total LRRK2
measured parameter: Phosphorylation level relative to solvent (%) (cellular pS935 assay)

# sample smiles, measured
records = [
    ("Oc1cccc(-c2nc(N3CCOCC3)c3oc4ncccc4c3n2)c1", 71.34),
    ("CC(=O)c1ccc(N2CCOCC2)cc1O", 71.78),
    ("NC(=O)c1cccc(-c2cc(Nc3ccc(OC(F)(F)F)cc3)ncn2)c1", 78.83),
    ("O=c1[nH]c2ccccc2n1C1CCN(Cc2ccc(-c3nc4cc5nc[nH]c5cc4nc3-c3ccccc3)cc2)CC1", 77.80),
]
